- tested.system: Phosphodiesterase 4 (Homo sapiens, UniProt P27815+Q08499+Q07343+Q08493)
- assay.notes: Inhibitory activity against Phosphodiesterase 4 from cerebral cortex.
readout.label: IC50 (µM)

Example entries begin here.
CCCn1c(=O)n2ccnc2c2[nH]cnc21; 3.1
CCCn1cnc2c1c1nccn1c(=O)n2CCC; 1.9
CCCn1cnc2c1n(CCC)c(=O)n1nnnc21; 39
CCCN1C(=O)N2CCN=C2c2c1ncn2CCC; 5.1
CCCN1C(=O)N2CCCN=C2c2c1ncn2CCC; 49

(P) CCCN1C(=O)N2CCCN=C2c2ncn(CCC)c21
(Q) CCCn1cnc2c1c1nnnn1c(=O)n2CCC
Hi! Which is lower in terms of IC50, the first one P or the second one Q ? Response format: the label of the selected entry.
P
(P: 4.7 µM, Q: 18 µM)
